Readings of log10 of Ki for the listed molecules
- measurement-protocol: Inhibition of Plasmodium falciparum recombinant HGPRT expressed in Escherichia coli using Prib-PP as substrate by spectrophotometric assay in presence of guanine
Values reflect log10 of reported Ki (nM).

**Q:** Provide one value: measured log10 of Ki of COC(=O)CCN(CCn1cnc2c(=O)[nH]cnc21)CCP(=O)(O)O
**A:** 2.00

**Q:** Provide one value: measured log10 of Ki of Nc1nc2c(ncn2CCNCCP(=O)(O)O)c(=O)[nH]1
**A:** 4.20

###

- measurement-protocol: Inhibition of Plasmodium vivax HGPRT using Prib-PP as substrate by spectrophotometric assay in presence of guanine
metric: pKi
Recall that pKi is obtained by taking minus log10 of the concentration measured in molar.

INSERT INTO measurements (item_smiles, metric, measured_result) VALUES
  ('Nc1nc2c(ncn2CCN(CCP(=O)(O)O)CCP(=O)(O)O)c(=O)[nH]1', 'pKi', 6.05),
  ('N#CCCN(CCn1cnc2c(=O)[nH]cnc21)CCP(=O)(O)O', 'pKi', 6.15),
  ('Nc1nc2c(ncn2CCNCCP(=O)(O)O)c(=O)[nH]1', 'pKi', 4.96);

**Q:** Provide one value: measured pKi of COC(=O)CCN(CCn1cnc2c(=O)[nH]cnc21)CCP(=O)(O)O
**A:** 4.68

**Q:** Provide one value: measured pKi of Nc1nc2c(ncn2CCN(CCP(=O)(O)O)CC(=O)O)c(=O)[nH]1
**A:** 4.55

**Q:** Provide one value: measured pKi of N#CCN(CCn1cnc2c(=O)[nH]cnc21)CCP(=O)(O)O
**A:** 4.33

**Q:** Provide one value: measured pKi of CCOC(=O)CN(CCn1cnc2c(=O)[nH]c(N)nc21)CCP(=O)(O)O
**A:** 5.82

**Q:** Provide one value: measured pKi of COC(=O)CCN(CCn1cnc2c(=O)[nH]c(N)nc21)CCP(=O)(O)O
**A:** 5.40

**Q:** Provide one value: measured pKi of N#CCCCN(CCn1cnc2c(=O)[nH]c(N)nc21)CCP(=O)(O)O
**A:** 5.10

**Q:** Provide one value: measured pKi of CCOC(=O)CN(CCn1cnc2c(=O)[nH]cnc21)CCP(=O)(O)O
**A:** 4.96
